target: Chromo domain-containing protein 1 (Saccharomyces cerevisiae (strain ATCC 204508 / S288c) (Baker's yeast)) (UniProt P32657); assay: ScCHD-1 Enzyme Inhibition Assay; format: functional; set-up: scale not given: in the data most compounds retested in dose-response had high values; conditions: 30 µM
Sequence (P32657 whole entry, the tested form may be a part): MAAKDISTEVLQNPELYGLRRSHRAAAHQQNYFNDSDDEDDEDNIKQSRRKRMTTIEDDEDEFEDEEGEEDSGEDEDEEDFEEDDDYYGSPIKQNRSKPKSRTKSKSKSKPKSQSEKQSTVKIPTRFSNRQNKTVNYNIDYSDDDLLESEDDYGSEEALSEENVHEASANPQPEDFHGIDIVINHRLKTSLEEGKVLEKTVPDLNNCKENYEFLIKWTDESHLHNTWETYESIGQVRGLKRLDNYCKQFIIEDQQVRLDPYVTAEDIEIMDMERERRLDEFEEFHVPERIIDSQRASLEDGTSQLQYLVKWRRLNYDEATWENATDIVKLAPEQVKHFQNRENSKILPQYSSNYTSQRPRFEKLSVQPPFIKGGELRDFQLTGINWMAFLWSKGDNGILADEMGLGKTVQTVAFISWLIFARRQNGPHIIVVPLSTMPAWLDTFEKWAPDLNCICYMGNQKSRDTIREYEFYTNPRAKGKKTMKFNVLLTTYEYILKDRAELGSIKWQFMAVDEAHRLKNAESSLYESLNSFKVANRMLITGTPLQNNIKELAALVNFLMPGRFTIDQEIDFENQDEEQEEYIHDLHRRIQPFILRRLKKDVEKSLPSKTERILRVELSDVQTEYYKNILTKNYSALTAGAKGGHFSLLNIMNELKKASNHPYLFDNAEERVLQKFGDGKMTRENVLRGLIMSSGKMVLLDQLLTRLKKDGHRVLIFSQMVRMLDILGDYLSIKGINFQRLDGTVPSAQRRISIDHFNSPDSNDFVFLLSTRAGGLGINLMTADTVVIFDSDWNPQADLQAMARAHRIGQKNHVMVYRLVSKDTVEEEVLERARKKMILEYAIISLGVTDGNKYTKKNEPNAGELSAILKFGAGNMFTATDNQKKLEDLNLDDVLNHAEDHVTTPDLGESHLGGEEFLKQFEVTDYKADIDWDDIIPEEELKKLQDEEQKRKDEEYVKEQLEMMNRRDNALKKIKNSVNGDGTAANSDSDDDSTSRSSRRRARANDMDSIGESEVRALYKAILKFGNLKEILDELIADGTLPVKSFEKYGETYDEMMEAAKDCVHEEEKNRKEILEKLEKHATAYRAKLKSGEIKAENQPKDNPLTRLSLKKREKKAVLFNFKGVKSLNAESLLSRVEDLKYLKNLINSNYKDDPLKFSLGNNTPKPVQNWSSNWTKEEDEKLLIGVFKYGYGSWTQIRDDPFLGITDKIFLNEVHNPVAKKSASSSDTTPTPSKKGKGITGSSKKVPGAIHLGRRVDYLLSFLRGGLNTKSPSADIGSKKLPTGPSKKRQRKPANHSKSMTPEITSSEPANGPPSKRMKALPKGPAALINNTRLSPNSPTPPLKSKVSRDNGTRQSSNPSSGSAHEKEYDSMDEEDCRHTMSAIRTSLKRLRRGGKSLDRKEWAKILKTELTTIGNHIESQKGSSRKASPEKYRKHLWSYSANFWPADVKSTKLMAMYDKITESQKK
Percent Effect listing for selected compounds.
The reply should be a number in %, with the unit left off.

Consider the following illustrative entries.
Compound	Value Reported
CN(C)C(=O)Cc1ccc(NC(=O)NC2CCCCC2)cc1	-0.0586
Cn1c(CN2CCOCC2)nnc1C1CCN(C(=O)C2CCCC2)CC1	-4.58

Ask | Any idea what Percent Effect was measured for Cc1csc(C2CCCCN2C(=O)CN(C)C2CC2)n1 (configuration not stated) ?
Reply | 9.83

Ask | Any idea what Percent Effect was measured for COc1c(CNCc2cccc(Cn3ccnc3)c2)c(C)nn1C ?
Reply | -10

Ask | Any idea what Percent Effect was measured for Cc1cc(Nc2nc(C)cs2)nc(C2CCCCN2CCO)n1 (configuration not stated) ?
Reply | -23.2

Ask | Any idea what Percent Effect was measured for OC[C@H]1CC[C@]2(CC1)CN(Cc1ccccc1F)Cc1ccccc1O2 ?
Reply | -0.993

Ask | Any idea what Percent Effect was measured for CCc1nc(NS(=O)(=O)c2cc(C)ccc2F)no1 ?
Reply | -2.85
